Assay: chemical genetic growth profiling, strain panel (AID 1159580);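 note: tested at 20 µM; growth read once vehicle control cultures reached saturation at 30 °C; 1 = growth at the plate median or of vehicle wells; lower values mean less growth of the strain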
Conditions: S. cerevisiae deletion strains, growth OD, locus YPL055C, strain LGE1
About 2,000 (36%) of roughly 5,500 compounds were called active. Roughly 18% stayed inconclusive and do not appear here. Cut-off read from the data, not from the text of the source: active = normalized growth mostly below about 0.91 (no sharp cut-off); inconclusive = no clear call, values can overlap the other calls; inactive = mostly above about 0.92. The list shows a part of the results.
Form entry, call: pick from True (active), False (inactive)

Can you look up the reported call for NC(=O)NCCCC(N)C(=O)O (configuration not stated) for me? False

Can you look up the reported call for CCc1cccc(CC)c1N(COC)C(=O)CCl for me? False

Can you look up the reported call for OC1(C(F)(F)F)CC(c2ccc3ccccc3c2)=NN1 (configuration not stated) for me? True

Can you look up the reported call for CCOC(=O)C1C(c2cccnc2)C(C(=O)OCC)C(O)(C(F)(F)F)NC1(O)C(F)(F)F (configuration not stated) for me? False

Can you look up the reported call for COc1ccc(CCNc2ccc(C(F)(F)F)cc2N)cc1OC for me? False

Can you look up the reported call for CC(C)(C)NCC(O)c1cc(Cl)c(N)c(Cl)c1 (configuration not stated) for me? False

Can you look up the reported call for CNC(C)C(O)c1ccccc1 (configuration not stated) for me? False

Can you look up the reported call for COc1ccc2c(c1C(C)C)CCC1C(C)(C)C(=O)CCC21C (configuration not stated) for me? False

Can you look up the reported call for N[C@H](C(=O)O)c1cc(O)cc(O)c1 for me? False

Can you look up the reported call for COCCCNC(=S)N/N=C\c1cccc(OC)c1O for me? False

Can you look up the reported call for CN1CCC2(CCN3CCc4c(oc5ccccc45)C3C2)N(C)C1=O (configuration not stated) for me? False

Can you look up the reported call for CCOC(=O)NC1=C(C2CC2)C(=O)C(NC(=O)OCC)=C(C2CC2)C1=O for me? False

---

Would you mind telling me the reported normalized growth of each entry?
Assay: chemical genetic growth profiling, strain panel (AID 1159580);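 note: tested at 20 µM; growth read once vehicle control cultures reached saturation at 30 °C; 1 = growth at the plate median or of vehicle wells; lower values mean less growth of the strain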
Conditions: S. cerevisiae deletion strains, growth OD, locus YLR113W, strain HOG1, active compounds read low
Screen size: about 5,500 compounds; about 2,000 (36%) were called active. Roughly 18% stayed inconclusive and do not appear here. Some of the results follow.
Give the figure by itself; no unit, no explanation.

May I ask what normalized growth has been recorded for COc1cc(OC)c2c(=O)c(O)c(-c3ccc(OC)c(OC)c3)oc2c1 ? 0.944

May I ask what normalized growth has been recorded for CCCCOc1cc(C(=O)NCCN(CC)CC)c2ccccc2n1 ? 1.02

May I ask what normalized growth has been recorded for NC(=O)c1ncn([C@@H]2O[C@H](CO)[C@@H](O)[C@H]2O)n1 ? 0.977

May I ask what normalized growth has been recorded for Cc1cc(Cl)ccc1NNC(=O)c1sccc1Cl ? 0.779

May I ask what normalized growth has been recorded for Cc1[nH]ccc2c1[nH]c1cc(=O)ccc12 ? 1.02

May I ask what normalized growth has been recorded for CO[C@@]1(NC(=O)C(C(=O)O)c2ccc(O)cc2)C(=O)N2C(C(=O)O)=C(CSc3nnnn3C)CO[C@@H]21 (some centres not stated) ? 0.995

May I ask what normalized growth has been recorded for Cc1ccccc1OCC(O)CO (configuration not stated) ? 0.971

May I ask what normalized growth has been recorded for O=C1[O][Bi][O]c2ccccc21 ? 1.06

May I ask what normalized growth has been recorded for Cc1c(C)c(C)c(C(O)c2ccccc2)c(C)c1C (configuration not stated) ? 0.609

May I ask what normalized growth has been recorded for C[C@@H]1CC[C@@]2(NC1)O[C@H]1C[C@H]3C4CC=C5C[C@@H](O)CC[C@]5(C)C4CC[C@]3(C)C1[C@@H]2C (some centres not stated) ? 1.04

May I ask what normalized growth has been recorded for CC(C)(C)C(=O)NC(=S)N/N=C\c1cc(Cl)cc(Cl)c1O ? 0.245

May I ask what normalized growth has been recorded for C[C@]12CCC3c4ccc(O)cc4CCC3C1CC[C@@H]2O (some centres not stated) ? 0.983

May I ask what normalized growth has been recorded for CC(NC(=S)N/N=C\c1ccccc1O)c1ccccc1 (configuration not stated) ? 0.966

May I ask what normalized growth has been recorded for COc1cc(OC)c2c(=O)c(OC)c(-c3ccc(OC)c(OC)c3)oc2c1 ? 0.978

May I ask what normalized growth has been recorded for C=C(C)[C@H]1COc2cc3oc(=O)ccc3cc2O1 ? 0.996

May I ask what normalized growth has been recorded for COP(=O)(OC)C(O)C(Cl)(Cl)Cl (configuration not stated) ? 1

May I ask what normalized growth has been recorded for CC(C)[N+](C)(CCC(C(N)=O)(c1ccccc1)c1ccccc1)C(C)C ? 1.04

May I ask what normalized growth has been recorded for CC12CCC3c4ccc(OC(=O)c5ccccc5)cc4CCC3C1CCC2O (configuration not stated) ? 1.02

May I ask what normalized growth has been recorded for Cc1cc(Cl)ccc1NNC(=O)c1sccc1Br ? 0.715

May I ask what normalized growth has been recorded for CC[n+]1c(-c2ccccc2)c2cc(N)ccc2c2ccc(N)cc21 ? 0.831

May I ask what normalized growth has been recorded for CNC(C)C(O)c1ccccc1 (configuration not stated) ? 0.963

May I ask what normalized growth has been recorded for C[C@]12CCC3c4ccc(O)cc4CCC3C1C[C@@H](O)[C@@H]2O (some centres not stated) ? 0.97

May I ask what normalized growth has been recorded for CN[C@@H]1[C@@H](O)C(OC2[C@@H](N)C[C@@H](N)[C@H](O[C@H]3O[C@H](C(C)O)[C@@H](O)[C@H](O)[C@H]3N)[C@H]2O)OC[C@]1(C)O (some centres not stated) ? 0.995

May I ask what normalized growth has been recorded for O/N=C(/c1ccc(Cl)cc1)c1cc2ccccc2o1 ? 0.915

May I ask what normalized growth has been recorded for COCCCNC(=S)N/N=C\c1cc(Br)ccc1O ? 0.985

May I ask what normalized growth has been recorded for NC(CSCSCC(N)C(=O)O)C(=O)O (configuration not stated) ? 1.04

May I ask what normalized growth has been recorded for CC/C(=C(/CC)c1ccc(O)cc1)c1ccc(O)cc1 ? 0.963

May I ask what normalized growth has been recorded for CCN(Cc1ccncc1)C(=O)C(CO)c1ccccc1 (configuration not stated) ? 0.988

May I ask what normalized growth has been recorded for COc1ccc(Cl)cc1C(=O)NCCc1ccc(S(=O)(=O)NC(=O)NC2CCCCC2)cc1 ? 1.01

May I ask what normalized growth has been recorded for FC(F)(F)c1ccc(N2CCc3ccccc3C2)c(NC(=S)Nc2cc(Cl)cc(Cl)c2)c1 ? 1.03

May I ask what normalized growth has been recorded for CC1CC[C@]2(NC1)O[C@H]1CC3C4CC[C@H]5C[C@@H](O)CC[C@]5(C)C4CC[C@]3(C)[C@H]1[C@@H]2C (some centres not stated) ? 0.557

May I ask what normalized growth has been recorded for NC(=O)OCC(COC(N)=O)c1ccccc1 ? 0.99

May I ask what normalized growth has been recorded for CC1CC[C@@]2(OC1)O[C@H]1CC3C4CC[C@@H]5C[C@@H](O)CC[C@]5(C)C4CC[C@]3(C)[C@H]1[C@@H]2C (some centres not stated) ? 0.996

May I ask what normalized growth has been recorded for Cc1cc(Oc2ccc(C(F)(F)F)cc2NS(C)(=O)=O)cc(C)c1Cl ? 0.75

May I ask what normalized growth has been recorded for CC(=O)O[C@]1(C(C)=O)CCC2C3C=C(Cl)C4=CC(=O)[C@@H]5C[C@@H]5[C@]4(C)C3CC[C@@]21C (some centres not stated) ? 1.03

May I ask what normalized growth has been recorded for CCCCCC(=O)Cc1cc(O)cc(O)c1C(=O)Oc1cc(CC(=O)CCCCC)c(C(=O)O)c(OC)c1 ? 0.983

May I ask what normalized growth has been recorded for CC(C)c1c(O)c(-c2cc3c(c(C(C)C)c2O)CCC2C(C)(C)CCC[C@]32C)cc2c1CCC1C(C)(C)CCC[C@]21C (some centres not stated) ? 0.996

May I ask what normalized growth has been recorded for CC1CCC2(OC1)OC1CC3C4CC[C@H]5C[C@@H](O)CC[C@]5(C)C4CC(=O)[C@]3(C)C1C2C (some centres not stated) ? 0.97

May I ask what normalized growth has been recorded for CC(=O)OCC1=C(C(=O)O)N2C(=O)[C@@H](NC(=O)Cc3cccs3)[C@H]2SC1 ? 0.971

May I ask what normalized growth has been recorded for O=S(=O)(CS(=O)(=O)Oc1ccc(Cl)c(Cl)c1)Oc1ccc(Cl)c(Cl)c1 ? 0.962

May I ask what normalized growth has been recorded for COc1ccccc1NC(=S)N/N=C\c1ccccc1O ? 0.955

May I ask what normalized growth has been recorded for CCN[C@@H]1C[C@H](N)[C@@H](O[C@H]2OC(CN)=CC[C@H]2N)[C@H](O)[C@H]1OC1OC[C@](C)(O)[C@H](NC)[C@H]1O (some centres not stated) ? 0.953

Each recorded value in this set is attributed to PubChem BioAssay AID1159580.
